Ref: patent US20260125372A1

- test system: DRP1 (Homo sapiens, UniProt O00429)
- Construct: Human DRIP1 (UniProtID: O00429.4, residues 1-699)
- Sequence (O00429 1-699 isoform O00429-4): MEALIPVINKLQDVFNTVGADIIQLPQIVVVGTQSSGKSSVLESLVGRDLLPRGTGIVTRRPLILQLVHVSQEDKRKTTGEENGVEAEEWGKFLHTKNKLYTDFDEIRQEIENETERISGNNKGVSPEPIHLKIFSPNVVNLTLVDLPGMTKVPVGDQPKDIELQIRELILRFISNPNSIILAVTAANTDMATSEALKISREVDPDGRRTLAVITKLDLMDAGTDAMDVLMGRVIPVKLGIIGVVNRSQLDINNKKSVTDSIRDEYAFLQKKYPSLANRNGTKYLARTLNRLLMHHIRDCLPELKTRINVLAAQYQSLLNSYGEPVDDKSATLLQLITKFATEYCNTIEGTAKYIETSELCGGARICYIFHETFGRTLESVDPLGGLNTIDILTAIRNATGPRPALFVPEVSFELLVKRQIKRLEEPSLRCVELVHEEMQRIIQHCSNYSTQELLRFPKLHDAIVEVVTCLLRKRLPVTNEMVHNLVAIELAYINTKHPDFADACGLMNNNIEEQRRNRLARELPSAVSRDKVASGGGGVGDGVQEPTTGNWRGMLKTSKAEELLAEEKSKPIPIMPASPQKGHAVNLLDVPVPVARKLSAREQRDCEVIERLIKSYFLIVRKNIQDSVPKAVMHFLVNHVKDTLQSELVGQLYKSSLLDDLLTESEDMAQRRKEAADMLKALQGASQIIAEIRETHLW
- protocol: AlphaLISA assay (His-DRP1 / MiD49-GST interaction)
- measurement parameters: His-DRP1 200 nM, MiD49-GST 20 nM, GMP-PNP 100 uM
measured attribute: IC50

compound="CCOc1cc(-c2cncs2)nc2ccc(NC(=O)C3COC3)cc12 [Example 3]" result="< 500 nM"
compound="COCCOc1cc(-c2cncs2)nc2ccc(NC(=O)[C@H]3C[C@@H](OC)C3)cc12 [Example 33]" result="< 500 nM"
compound="COCCOc1cc(-c2cncs2)nc2ccc(NC(=O)[C@H](C)O)cc12 [Example 14]" result="1000 to 10000 nM"
compound="CCOC(C)C(=O)Nc1ccc2nc(-c3cncs3)cc(OCCOC)c2c1 (centres unmarked) [Example 26]" result="< 500 nM"
compound="COCCOc1cc(-c2cncs2)nc2ccc(NC(=O)C(C)OC)cc12 (centres unmarked) [Example 22]" result="< 500 nM"

----------
IC50: recorded values
- test system: DRP1 (Homo sapiens, UniProt O00429)
- Construct: Human DRIP1 (UniProtID: O00429.4, residues 1-699)
- protocol: AlphaLISA assay (His-DRP1 / MiD49-GST interaction)
- measurement parameters: His-DRP1 200 nM, MiD49-GST 20 nM, GMP-PNP 100 uM
- Method: Human DRIP1 (UniProtID: O00429.4, residues 1-699), and human MiD49 (UnitProtIS: Q96C03.1, residues 126-454) was cloned into a pET15b vector as an N-terminal His-tag Fusion. […] A total of 100 nl of compounds were plated in a 384-well AlphaPlate (PerkinElmer, Waltham, MA) at concentrations 100 uM to […] in DMSO (dilution by 3.165 for 11 concentration levels). […] The AlphaLISA signal was detected with an EnVision Multilabel Reader (excitation at 680 and emission 615 nm). […]
measured attribute: IC50

compound="COC[C@@H](C)Oc1cc(-c2cncs2)nc2ccc(NC(=O)C(C)C#N)cc12 (stereo partly drawn) [Example 49]" result="1000 to 10000 nM"
compound="CCOc1cc(-n2cnc(C(C)(C)C)c2)nc2ccc(NC(=O)C3COC3)cc12 [Example 47]" result="> 10000 nM"
compound="CCOc1cc(-c2cnc(Cl)s2)nc2ccc(NC(=O)C3COC3)cc12 [Example 12]" result="1000 to 10000 nM"
compound="COC[C@@H](C)Oc1cc(-c2cncs2)nc2ccc(NC(=O)C3COC3)cc12 [Example 52]" result="1000 to 10000 nM"
compound="COCCOc1cc(-c2cnc(C)s2)nc2ccc(NC(=O)C3COC3)cc12 [Example 11]" result="500 to 1000 nM"
compound="CCOc1cc(-n2cnc(Cl)c2)nc2ccc(NC(=O)C3COC3)cc12 [Example 44]" result="500 to 1000 nM"
compound="COCCOc1cc(-c2cncs2)nc2ccc(NC(=O)CO)cc12 [Example 13]" result="1000 to 10000 nM"
compound="COCCOc1cc(-n2cnc(C)c2)nc2ccc(NC(=O)C3COC3)cc12 [Example 41]" result="< 500 nM"
compound="COCCOc1cc(-c2cncs2)nc2ccc(NC(=O)C(C)C#N)cc12 (stereo not drawn) [Example 28]" result="< 500 nM"
compound="COCCOc1cc(-c2cncs2)nc2ccc(NC(=O)C3CC3C)cc12 (stereo not drawn) [Example 18]" result="< 500 nM"
compound="COCCOc1cc(-c2cncs2)nc2ccc(NC(=O)C3CC(F)(F)C3)cc12 [Example 30]" result="1000 to 10000 nM"
compound="COCCOc1cc(-c2cncs2)nc2ccc(NC(=O)CCOC)cc12 [Example 24]" result="500 to 1000 nM"
